# EC50 per record follows
- STUDY_SYSTEM: CB1 receptor (Homo sapiens, UniProt P21554)
- Sequence (P21554 whole entry): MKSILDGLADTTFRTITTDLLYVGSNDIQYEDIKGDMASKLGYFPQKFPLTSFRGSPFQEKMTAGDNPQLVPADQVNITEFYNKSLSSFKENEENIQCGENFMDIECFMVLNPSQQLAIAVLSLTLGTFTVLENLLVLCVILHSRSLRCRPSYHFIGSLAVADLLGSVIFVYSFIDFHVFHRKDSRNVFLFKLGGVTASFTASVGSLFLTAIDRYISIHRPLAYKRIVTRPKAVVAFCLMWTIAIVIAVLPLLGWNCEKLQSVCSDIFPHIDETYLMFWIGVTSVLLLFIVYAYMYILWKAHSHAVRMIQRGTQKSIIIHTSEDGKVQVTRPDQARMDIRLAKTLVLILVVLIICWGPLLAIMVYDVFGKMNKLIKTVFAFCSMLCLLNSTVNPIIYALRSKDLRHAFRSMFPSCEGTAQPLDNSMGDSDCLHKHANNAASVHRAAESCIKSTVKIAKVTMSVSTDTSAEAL
- ASSAY_METHOD_TEXT: cell-based
- Design: host or cells: PathHunter cell lines
Response body: numeric value in nM, unit text excluded.

Item: CCCCCCC(C)(C)c1cc(O)c2c(c1)OC(C)(C)[C@@H]1CC=C(C(=O)OC)C[C@@H]21 | System: CB1 receptor (Homo sapiens, UniProt P21554) | EC50: 654

Item: CCCCCCC(C)(C)c1cc(O)c2c(c1)OC(C)(C)[C@@H]1CC=C(C(=O)NC3CNC3)C[C@@H]21 | System: CB1 receptor (Homo sapiens, UniProt P21554) | EC50: 1710
